The origin of these recorded values is PubChem BioAssay (EPA / NIEHS).

- method: ATG_PBREM_CIS: Attagene CIS-FACTORIAL HepG2 Assay for human Phenobarbital-responsive Enhancer Module (PBREM) (AID 2282955)
- experimental.conditions: HepG2 PBREM cis-reporter, Attagene multiplexed transcription; actives raise or lower the signal
Active and inactive are the calls of the source. The calls were made as follows: active = hit-call score of the fitted dose curve at least 0.9, where 1 is the maximum; inactive = score below 0.9.
Outcome codes: active, inactive

| compound | qualitative.label |
| --- | --- |
| COP(=O)(OC)OC | inactive |
| Clc1nc(Cl)nc(Cl)n1 | inactive |
| CCOC(=O)Nc1cccc(OC(=O)Nc2ccccc2)c1 | inactive |
| Oc1cccc2cccnc12 | inactive |
| O=S(=O)(c1ccc(Cl)cc1)c1ccc(Cl)cc1 | inactive |
| BrCCBr | inactive |
| COc1ccc(C=O)cc1OC | inactive |
| O=C(O)C(Cl)(Cl)Cl | inactive |
| O=C(O)C(F)(F)C(F)(F)C(F)(F)C(F)(F)C(F)(F)C(F)(F)F | inactive |
| Cc1cc(Cl)ccc1O[C@H](C)C(=O)O | inactive |
| CC(=O)C=C(C)C | inactive |
| O=C(Cc1ccccc1)c1ccccc1 | inactive |
| NC(=O)O | inactive |
| CC(=O)C(Cl)C(=O)N(C)C (stereo not given) | inactive |
| O=C(O)Cc1ccccc1 | inactive |
| Cl/C=C\C[N+]12CN3CN(CN(C3)C1)C2 | inactive |
| CCC(C)(C)c1ccc(O)c(C(C)(C)CC)c1 | inactive |
| COC(=O)Cc1ccccc1 | inactive |
| OCC(O)CCl (stereo not given) | inactive |
| CC1(C)CCC(Cc2ccc(Cl)cc2)C1(O)Cn1cncn1 (stereo not given) | active |
| COP(=S)(OC)Oc1c(Cl)cc(C)cc1Cl | inactive |
| Cc1ccc2ccccc2c1C | inactive |
| CC(=O)[O][Hg][c]1ccccc1 | inactive |
| CCOP(OCC)OCC | inactive |
| O=CC=O | inactive |
| CCc1ccccc1N | inactive |
| COc1cc2c(cc1OC)[C@@]13CCN4CC5=CCO[C@H]6CC(=O)N2[C@H]1[C@H]6[C@H]5C[C@H]43 | inactive |
| CN(C)N=O | inactive |
| CC1CN1P(=O)(N1CC1C)N1CC1C (stereo not given) | inactive |
| CC(C)(OO)c1ccccc1 | inactive |
| COc1cc(OC)nc(NC(=O)NS(=O)(=O)c2ncccc2C(=O)N(C)C)n1 | inactive |
| CCOP(=S)(OCC)Oc1nc(Cl)c(Cl)cc1Cl | inactive |
| CCCCCCCCc1ccc(O)cc1 | inactive |
| Nc1ccc(N=Nc2ccc(-c3ccc(N=Nc4c(S(=O)(=O)O)cc5cc(S(=O)(=O)O)c(N=Nc6ccccc6)c(O)c5c4N)cc3)cc2)c(N)c1 | inactive |
| O=C(OC1CCCCC1)c1ccccc1C(=O)OC1CCCCC1 | inactive |
| C(=NC1CCCCC1)=NC1CCCCC1 | active |
| ClCC(Cl)CCl | inactive |
| ClC1=C(Cl)[C@]2(Cl)[C@H]3[C@H]([C@H]4C=C[C@H]3C4)[C@@]1(Cl)C2(Cl)Cl | inactive |
| Clc1ccc(COC(Cn2ccnc2)c2ccc(Cl)cc2Cl)cc1 (stereo not given) | inactive |
| CC(C)c1cccc(C(C)C)c1O | inactive |
| COc1ccccc1OC | inactive |
| C=C(C)C#N | inactive |
| C=C(C)C(=O)[O][Sn]([CH2]CCC)([CH2]CCC)[CH2]CCC | inactive |
| ClC1=C(Cl)[C@]2(Cl)[C@@H]3[C@@H](Cl)[C@@H](Cl)C[C@@H]3[C@@]1(Cl)C2(Cl)Cl | inactive |
| Cc1ccccc1C(=O)Nc1cccc(OC(C)C)c1 | inactive |
| C[C@H]1O[C@@H](O[C@H]2[C@@H](O)C[C@H](O[C@H]3[C@@H](O)C[C@H](O[C@H]4CC[C@@]5(C)[C@H](CC[C@@H]6[C@@H]5CC[C@]5(C)[C@@H](C7=CC(=O)OC7)CC[C@]65O)C4)O[C@@H]3C)O[C@@H]2C)C[C@H](O)[C@@H]1O | inactive |
| O=C(Nc1ccc2[nH]ccc2c1)c1cc2cc(F)ccc2n1Cc1cccc(F)c1 | active |
| CCC(=O)C(CC(C)N(C)C)(c1ccccc1)c1ccccc1 (stereo not given) | inactive |
| CCC(=O)c1ccccc1 | inactive |
| CC(C)CCCCCCOC(=O)c1ccccc1C(=O)OCCCCCCC(C)C | inactive |
| Cc1ccccc1N | inactive |
| CCCCOCCOC(C)=O | inactive |
| CC(=O)c1cc(C(C)(C)C)cc2c1CCC2(C)C | inactive |
| O=C/C=C/c1ccccc1 | inactive |
| CC(C)(c1ccccc1)c1ccc(O)c(C(C)(C)c2ccccc2)c1 | active |
